Could you please report measured pIC50 for the items listed next?
# target or test system: Neprilysin (Rattus norvegicus, UniProt P07861)
# Sequence (P07861 whole entry): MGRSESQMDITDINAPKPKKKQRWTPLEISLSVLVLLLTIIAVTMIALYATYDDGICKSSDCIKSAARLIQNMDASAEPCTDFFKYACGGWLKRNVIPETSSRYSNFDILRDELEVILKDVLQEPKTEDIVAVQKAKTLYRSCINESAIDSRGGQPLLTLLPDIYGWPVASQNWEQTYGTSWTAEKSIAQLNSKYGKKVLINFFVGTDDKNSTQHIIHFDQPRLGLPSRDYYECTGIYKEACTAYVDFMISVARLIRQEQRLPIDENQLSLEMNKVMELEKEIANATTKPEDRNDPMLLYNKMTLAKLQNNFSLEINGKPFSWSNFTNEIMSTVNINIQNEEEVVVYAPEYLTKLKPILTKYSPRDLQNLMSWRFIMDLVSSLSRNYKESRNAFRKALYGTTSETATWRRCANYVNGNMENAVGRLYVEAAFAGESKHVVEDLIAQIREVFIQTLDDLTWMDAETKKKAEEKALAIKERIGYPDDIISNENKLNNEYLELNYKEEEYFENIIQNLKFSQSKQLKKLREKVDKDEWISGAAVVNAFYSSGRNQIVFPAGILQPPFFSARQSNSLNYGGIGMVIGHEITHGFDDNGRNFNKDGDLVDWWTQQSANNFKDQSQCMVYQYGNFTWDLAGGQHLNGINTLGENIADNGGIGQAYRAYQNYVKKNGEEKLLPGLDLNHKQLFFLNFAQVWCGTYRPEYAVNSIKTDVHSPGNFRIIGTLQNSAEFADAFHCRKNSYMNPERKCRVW
# method summary: 50% inhibitory activity against enkephalinase purified from rabbit kidney with [3H]D-Ala2-Leu-enkephalin (20 nM) as substrate.
One number for each entry, as −log10 of the molar value.

compound	target or test system	pIC50
C[C@H](NC(=O)[C@H](CC(=O)NO)Cc1ccccc1)C(=O)O	Neprilysin (Rattus norvegicus, UniProt P07861)	8.74

Moving on to another compound below.
Using the record for C[C@H](NC(=O)[C@@H](CC(=O)NO)Cc1ccccc1)C(=O)O (racemic) , report its pIC50.
8.77

Source listed as ChEMBL document CHEMBL1123105.
